Ref: ChEMBL document CHEMBL3616437

Catalogue of molecules with associated fractional inhibitory concentration index (FICI)
# System: Cryptococcus neoformans
# assay procedure: Ratio of compound MIC for Cryptococcus neoformans 5396 in presence of amphotericin B to compound MIC for Cryptococcus neoformans 5396 in absence of amphotericin B by checkerboard microtiter test
# Type: functional
value type: fractional inhibitory concentration index (FICI)

{"columns": ["sample smiles", "study system", "result"],
 "data": [
  ["COc1ccc(-c2csc(N/N=C/C3CCCCC3)n2)cc1", "Cryptococcus neoformans", 2.07],
  ["c1ccc(-c2csc(NN=C3CCCC3)n2)cc1", "Cryptococcus neoformans", 4.86],
  ["C(=N\\Nc1nc(-c2ccccc2)cs1)/C1CCCCC1", "Cryptococcus neoformans", 1.15],
  ["COc1ccc(-c2csc(N/N=C(\\C)CCO)n2)cc1", "Cryptococcus neoformans", 1.58]
]}

###

# Test system: Cryptococcus bacillisporus
# assay procedure: Antifungal activity against Cryptococcus gattii ATCC 32608 after 48 to 72 hrs by broth microdilution method
# Format: functional

{"columns": ["sample smiles", "MFC"],
 "data": [
  ["COc1ccc(-c2csc(N/N=C(\\C)CCO)n2)cc1", "3.9 µM"],
  ["c1ccc(-c2csc(NN=C3CCCC3)n2)cc1", "3.9 µM"],
  ["COc1ccc(-c2csc(N/N=C/C3CCCCC3)n2)cc1", "3.9 µM"],
  ["C[C@@H]1[C@H](O)[C@@H](C)/C=C/C=C/C=C/C=C/C=C/C=C/C=C/[C@H](O[C@@H]2O[C@H](C)[C@@H](O)[C@H](N)[C@@H]2O)C[C@@H]2O[C@](O)(C[C@@H](O)C[C@@H](O)[C@H](O)CC[C@@H](O)C[C@@H](O)CC(=O)O[C@H]1C)C[C@H](O)[C@H]2C(=O)O", "0.9 µM"],
  ["C(=N\\Nc1nc(-c2ccccc2)cs1)/C1CCCCC1", "1.9 µM"],
  ["OC(Cn1cncn1)(Cn1cncn1)c1ccc(F)cc1F", "62.5 µM"]
]}

###

# Tested on: Cryptococcus gattii species complex
# assay procedure: Ratio of compound MIC for Cryptococcus gattii 196L/03 in presence of fluconazole to compound MIC for Cryptococcus gattii 196L/03 in absence of fluconazole by checkerboard microtiter test
# Format: functional, Cryptococcus bacillisporus
value type: fractional inhibitory concentration index (FICI)

{"columns": ["sample smiles", "result"],
 "data": [
  ["C(=N\\Nc1nc(-c2ccccc2)cs1)/C1CCCCC1", 2.47],
  ["c1ccc(-c2csc(NN=C3CCCC3)n2)cc1", 1.84],
  ["COc1ccc(-c2csc(N/N=C(\\C)CCO)n2)cc1", 1.95],
  ["COc1ccc(-c2csc(N/N=C/C3CCCCC3)n2)cc1", 2.28]
]}

###

# Tested on: Cryptococcus neoformans
# assay procedure: Antifungal activity against Cryptococcus neoformans LMM820 after 48 to 72 hrs by broth microdilution method
# Type: functional

{"columns": ["molecule", "MIC, µM"],
 "data": [
  ["COc1ccc(-c2csc(N/N=C(\\C)CCO)n2)cc1", 0.5],
  ["C(=N\\Nc1nc(-c2ccccc2)cs1)/C1CCCCC1", 1.7],
  ["COc1ccc(-c2csc(N/N=C/C3CCCCC3)n2)cc1", 3.2],
  ["OC(Cn1cncn1)(Cn1cncn1)c1ccc(F)cc1F [FLUCONAZOLE]", 13],
  ["c1ccc(-c2csc(NN=C3CCCC3)n2)cc1", 2.2],
  ["C[C@@H]1[C@H](O)[C@@H](C)/C=C/C=C/C=C/C=C/C=C/C=C/C=C/[C@H](O[C@@H]2O[C@H](C)[C@@H](O)[C@H](N)[C@@H]2O)C[C@@H]2O[C@](O)(C[C@@H](O)C[C@@H](O)[C@H](O)CC[C@@H](O)C[C@@H](O)CC(=O)O[C@H]1C)C[C@H](O)[C@H]2C(=O)O [AMPHOTERICIN B]", 0.06]
]}

###

# Test system: Cryptococcus neoformans
# assay procedure: Ratio of compound MIC for Cryptococcus neoformans 96806 in presence of amphotericin B to compound MIC for Cryptococcus neoformans 96806 in absence of amphotericin B by checkerboard microtiter test
# Format: functional
Catalogue of compounds with associated fractional inhibitory concentration index (FICI)
value type: fractional inhibitory concentration index (FICI)

{"columns": ["sample smiles", "result"],
 "data": [
  ["COc1ccc(-c2csc(N/N=C/C3CCCCC3)n2)cc1", 1.46],
  ["c1ccc(-c2csc(NN=C3CCCC3)n2)cc1", 2.46],
  ["C(=N\\Nc1nc(-c2ccccc2)cs1)/C1CCCCC1", 2.67],
  ["COc1ccc(-c2csc(N/N=C(\\C)CCO)n2)cc1", 2.78]
]}

###

# assay procedure: Selectivity index, ratio of IC50 for African green monkey Vero cells to MIC for Cryptococcus gattii ATCC 24065
# Format: toxicity, cell-based
Catalogue of compounds with associated selectivity ratio
value type: selectivity ratio

{"columns": ["sample smiles", "result"],
 "data": [
  ["COc1ccc(-c2csc(N/N=C(\\C)CCO)n2)cc1", 222],
  ["COc1ccc(-c2csc(N/N=C/C3CCCCC3)n2)cc1", 25.6],
  ["OC(Cn1cncn1)(Cn1cncn1)c1ccc(F)cc1F", 7.87]
]}

###

Catalogue of molecules with associated MFC
# System: Cryptococcus neoformans
# assay procedure: Antifungal activity against Cryptococcus neoformans VM-MCMMPI after 48 to 72 hrs by broth microdilution method
# Type: functional
value type: MFC (µM)

{"columns": ["molecule", "result"],
 "data": [
  ["C[C@@H]1[C@H](O)[C@@H](C)/C=C/C=C/C=C/C=C/C=C/C=C/C=C/[C@H](O[C@@H]2O[C@H](C)[C@@H](O)[C@H](N)[C@@H]2O)C[C@@H]2O[C@](O)(C[C@@H](O)C[C@@H](O)[C@H](O)CC[C@@H](O)C[C@@H](O)CC(=O)O[C@H]1C)C[C@H](O)[C@H]2C(=O)O [AMPHOTERICIN B]", 0.22],
  ["COc1ccc(-c2csc(N/N=C/C3CCCCC3)n2)cc1", 3.9],
  ["COc1ccc(-c2csc(N/N=C(\\C)CCO)n2)cc1", 3.9]
]}

###

# Tested on: Cryptococcus neoformans
# assay procedure: Ratio of compound MIC for Cryptococcus neoformans CN31 in presence of fluconazole to compound MIC for Cryptococcus neoformans CN31 in absence of fluconazole by checkerboard microtiter test
# Format: functional
value type: fractional inhibitory concentration index (FICI)

{"columns": ["sample smiles", "result"],
 "data": [
  ["C(=N\\Nc1nc(-c2ccccc2)cs1)/C1CCCCC1", 3.97],
  ["COc1ccc(-c2csc(N/N=C(\\C)CCO)n2)cc1", 4.38],
  ["c1ccc(-c2csc(NN=C3CCCC3)n2)cc1", 2.71],
  ["COc1ccc(-c2csc(N/N=C/C3CCCCC3)n2)cc1", 2.58]
]}

###

# Test system: Cryptococcus gattii species complex
# assay procedure: Antifungal activity against Cryptococcus gattii 135L/03 after 48 to 72 hrs by broth microdilution method
# Type: functional, Cryptococcus bacillisporus
Criterion: MIC strictly less than 2 µM. Met: true. Not met: false.

{"columns": ["sample smiles", "answer label"],
 "data": [
  ["COc1ccc(-c2csc(N/N=C(\\C)CCO)n2)cc1", "true"],
  ["C[C@@H]1[C@H](O)[C@@H](C)/C=C/C=C/C=C/C=C/C=C/C=C/C=C/[C@H](O[C@@H]2O[C@H](C)[C@@H](O)[C@H](N)[C@@H]2O)C[C@@H]2O[C@](O)(C[C@@H](O)C[C@@H](O)[C@H](O)CC[C@@H](O)C[C@@H](O)CC(=O)O[C@H]1C)C[C@H](O)[C@H]2C(=O)O", "true"],
  ["COc1ccc(-c2csc(N/N=C/C3CCCCC3)n2)cc1", "false"],
  ["C(=N\\Nc1nc(-c2ccccc2)cs1)/C1CCCCC1", "true"],
  ["OC(Cn1cncn1)(Cn1cncn1)c1ccc(F)cc1F", "false"],
  ["c1ccc(-c2csc(NN=C3CCCC3)n2)cc1", "false"]
]}

###

Catalogue of compounds with associated fractional inhibitory concentration index (FICI)
# Test system: Cryptococcus gattii species complex
# assay procedure: Ratio of compound MIC for Cryptococcus gattii LMM818 in presence of amphotericin B to compound MIC for Cryptococcus gattii LMM818 in absence of amphotericin B by checkerboard microtiter test
# Format: functional, Cryptococcus bacillisporus
value type: fractional inhibitory concentration index (FICI)

{"columns": ["sample smiles", "result"],
 "data": [
  ["COc1ccc(-c2csc(N/N=C(\\C)CCO)n2)cc1", 4.98],
  ["c1ccc(-c2csc(NN=C3CCCC3)n2)cc1", 2.58],
  ["COc1ccc(-c2csc(N/N=C/C3CCCCC3)n2)cc1", 1.46],
  ["C(=N\\Nc1nc(-c2ccccc2)cs1)/C1CCCCC1", 2.58]
]}
